As shown below, each of these compounds has a reported Slope value.
Biological target: human ABCB4 (Homo sapiens, UniProt P21439)
Construct: made in house; host or cells: Pichia pastoris (chromosomally integrated)
Sequence (P21439 1-1279 isoform P21439-2): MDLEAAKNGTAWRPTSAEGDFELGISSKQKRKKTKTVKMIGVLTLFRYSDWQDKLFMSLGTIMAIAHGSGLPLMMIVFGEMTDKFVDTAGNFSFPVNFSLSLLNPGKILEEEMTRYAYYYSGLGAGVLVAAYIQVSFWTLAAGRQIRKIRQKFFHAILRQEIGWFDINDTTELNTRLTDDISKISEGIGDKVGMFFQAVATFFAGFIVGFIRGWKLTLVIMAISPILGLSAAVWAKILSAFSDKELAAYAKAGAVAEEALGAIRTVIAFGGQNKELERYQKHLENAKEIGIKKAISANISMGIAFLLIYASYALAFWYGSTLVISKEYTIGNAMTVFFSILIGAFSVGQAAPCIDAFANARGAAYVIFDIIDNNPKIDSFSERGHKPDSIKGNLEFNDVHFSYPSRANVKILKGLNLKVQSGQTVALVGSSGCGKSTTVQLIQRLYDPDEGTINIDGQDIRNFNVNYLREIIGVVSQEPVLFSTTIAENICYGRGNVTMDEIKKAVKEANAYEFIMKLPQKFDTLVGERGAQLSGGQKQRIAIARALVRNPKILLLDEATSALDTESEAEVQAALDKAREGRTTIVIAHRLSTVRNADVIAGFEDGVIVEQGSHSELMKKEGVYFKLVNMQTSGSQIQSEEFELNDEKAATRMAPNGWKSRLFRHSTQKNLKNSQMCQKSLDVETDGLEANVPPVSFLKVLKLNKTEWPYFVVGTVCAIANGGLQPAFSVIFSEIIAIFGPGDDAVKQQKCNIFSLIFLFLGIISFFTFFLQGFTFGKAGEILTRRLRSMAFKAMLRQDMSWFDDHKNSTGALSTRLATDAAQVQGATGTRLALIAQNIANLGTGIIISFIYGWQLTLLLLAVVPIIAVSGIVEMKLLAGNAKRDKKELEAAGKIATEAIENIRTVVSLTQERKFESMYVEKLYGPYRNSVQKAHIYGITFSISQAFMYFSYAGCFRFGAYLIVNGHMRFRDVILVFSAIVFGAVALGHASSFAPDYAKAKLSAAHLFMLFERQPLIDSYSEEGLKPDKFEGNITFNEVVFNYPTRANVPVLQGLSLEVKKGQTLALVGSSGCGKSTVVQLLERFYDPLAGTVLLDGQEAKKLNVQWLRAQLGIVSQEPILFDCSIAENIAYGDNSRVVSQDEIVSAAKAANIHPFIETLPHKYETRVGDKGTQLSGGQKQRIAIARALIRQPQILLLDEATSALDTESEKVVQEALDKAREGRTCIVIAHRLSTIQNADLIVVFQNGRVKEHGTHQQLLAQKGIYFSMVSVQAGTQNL
Assay: ATP hydrolysis (malachite green) of detergent-solubilized, purified ABCB4: modulation of basal ATPase activity
Assay type: biochemical
Details: Hill coefficient of allosteric sigmoidal fit of ATPase stimulation

{"compound": "C[C@H](CCC(=O)NCCC[N+](C)(C)CC(O)CS(=O)(=O)[O-])[C@H]1CC[C@H]2[C@@H]3[C@H](O)C[C@@H]4C[C@H](O)CC[C@]4(C)[C@H]3C[C@H](O)[C@]12C (some centres unmarked)", "dataValue": "4.3 ± 2.5"}

State its Slope for this compound: "C[C@H](CCC(=O)NCC(=O)O)[C@H]1CC[C@H]2[C@@H]3[C@@H](O)C[C@@H]4C[C@H](O)CC[C@]4(C)[C@H]3CC[C@]12C"
4.5 ± 1.0

State its Slope for this compound: "C[C@H](CCC(=O)NCC(=O)O)[C@H]1CC[C@H]2[C@@H]3CC[C@@H]4C[C@H](O)CC[C@]4(C)[C@H]3C[C@H](O)[C@]12C"
5.9 ± 1.2

State its Slope for this compound: "C[C@H](CCC(=O)O)[C@H]1CC[C@H]2[C@@H]3CC[C@@H]4C[C@H](O)CC[C@]4(C)[C@H]3C[C@H](O)[C@]12C"
2.6 ± 0.6
